This collection of values is drawn from PubChem BioAssay (Tox21).

TESTED TARGET: Cytochrome P450 2C19 (Homo sapiens)
PROTOCOL TEXT: Cytochrome P450 Family 2 Subfamily C Member 19 (CYP2C19) small molecule antagonists: luciferase reporter qHTS assay (AID 1671197); further: nearly all actives have a fitted effect of over 65% in size
CONDITIONS USED: P450-Glo CYP2C19 enzyme, luciferin luminescence, 1 h; series mostly up to 115 µM
Records with an inconclusive call do not appear. Calls of active or inactive are those of the source. The call rests on the fitted dose curve; in most records, active means well fitted inhibition curve with a large enough effect in the repeat runs; inconclusive means weak or mixed curves; inactive means no such curve, though single readings can be large or run the other way.
// allowed return values: T for active, F for inactive

**Q:** Could you kindly confirm the outcome this assay logged for CC1(C)O[C@@H]2C[C@H]3[C@@H]4C[C@H](F)C5=CC(=O)C=C[C@]5(C)[C@@]4(F)[C@@H](O)C[C@]3(C)[C@]2(C(=O)CO)O1 ?
**A:** F

**Q:** Please state the recorded outcome for this compound: CCCCCCCCCCCCO
**A:** T

**Q:** What is the recorded call for this compound in the test? ClC/C=C/CCl
**A:** F

**Q:** Field: outcome | Entry: CC/C=C\C/C=C\C/C=C\CCCCCCCC(=O)O
**A:** T

**Q:** Test call, this compound: CC(=O)[C@@]1(O)CC[C@H]2[C@@H]3C[C@H](C)C4=CC(=O)C=C[C@]4(C)[C@@]3(F)[C@@H](O)C[C@@]21C
**A:** F

**Q:** Assay result, entry COC(=O)c1ccc(C)cc1 — outcome?
**A:** F

**Q:** What outcome does the record of this test show for OCCNCCO ?
**A:** F

**Q:** Recorded call for Cc1ccc(/C(=C\CN2CCCC2)c2ccccn2)cc1 ?
**A:** F

**Q:** Could you please tell me the result logged for CCOC(=O)C(C)Oc1ccc(Oc2cnc3cc(Cl)ccc3n2)cc1 (configuration not stated) in this assay?
**A:** T

**Q:** Please share the test call associated with CC(C)[N+](C)(CCOC(=O)C1c2ccccc2Oc2ccccc21)C(C)C .
**A:** F

**Q:** Test call for this compound, please: CN(C)C
**A:** F

**Q:** What call does the record list for C[N+](C)(C)CCO ?
**A:** F
